Cited source: ChEMBL document CHEMBL1147267

Consider the following compounds; for each one, report its IC50.
System: HeLa
method_notes: Cytotoxicity against human HeLa cells
Type: functional, cell-based
// return numeric value only (unit: µM, not printed)

Look up IC50 with HeLa for this compound: C[C@]12CCC[C@](C)(C(=O)O)[C@@H]1CC[C@]1(C)[C@@H]2CC[C@]2(C)Oc3ccc(O)cc3C[C@@H]12 [Strongylophorin-3]
45.2

Look up IC50 with HeLa for this compound: CC1(C)CCC[C@]2(C)[C@H]3CC[C@]4(C)Oc5ccc(O)cc5C[C@H]4[C@]3(C)CC[C@@H]12 [Strongylophorin-22]
26.6

---

Tested on: HeLa
method_notes: Cytotoxicity against human HeLa cells
Format: functional, cell-based
Consider the following molecules; for each one, report its IC50.
// return numeric value only (unit: µM, not printed)

What does the record list as IC50 for CC1(C)CCC[C@@]2(CO)[C@H]1CC[C@]1(C)[C@@H]2CC[C@]2(C)Oc3ccc(O)cc3C[C@@H]12 [Strongylophorin-23] ?
62

What does the record list as IC50 for COc1ccc2c(c1)C[C@H]1[C@]3(C)CC[C@@H]4[C@](C)(CCC[C@]4(C)C(=O)O)[C@H]3CC[C@]1(C)O2 [Strongylophorine-1] ?
49.1

What does the record list as IC50 for C[C@]12CCC[C@](C)(C=O)[C@@H]1CC[C@]1(C)[C@@H]2CC[C@]2(C)Oc3ccc(O)cc3C[C@@H]12 [Strongylophorin-4] ?
50.5
